Target: Dopamine Receptor D4 (Homo sapiens)
Sequence (P21917 whole entry): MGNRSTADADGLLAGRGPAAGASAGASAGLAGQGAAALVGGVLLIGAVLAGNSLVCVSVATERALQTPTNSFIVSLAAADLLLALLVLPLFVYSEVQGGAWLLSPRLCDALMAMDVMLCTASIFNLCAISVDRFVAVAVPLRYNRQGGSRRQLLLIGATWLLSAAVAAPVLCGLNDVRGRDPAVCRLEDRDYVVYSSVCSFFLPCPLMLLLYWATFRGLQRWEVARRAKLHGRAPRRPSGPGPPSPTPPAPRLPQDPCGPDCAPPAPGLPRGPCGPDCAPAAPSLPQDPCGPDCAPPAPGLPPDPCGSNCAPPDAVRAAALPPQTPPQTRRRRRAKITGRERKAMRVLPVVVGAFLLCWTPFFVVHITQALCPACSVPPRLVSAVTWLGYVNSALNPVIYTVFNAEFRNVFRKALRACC
Assay: NIMH-PDSP binding affinity at dopamine receptor subtype D4
Conditions: ratio of Ki D2 to Ki D4
measurement kind: D2/D4

Example compounds with recorded D2/D4:
compound	D2/D4
Clc1ccc(N2CCN(CCCCc3nc4ccccc4o3)CC2)cc1 [Compound 20]	>327
Clc1ccc(N2CCN(CCc3nc4ccccc4o3)CC2)cc1 [Compound 22]	>7.1
Clc1ccc(N2CC3CC2CN3CCCc2cc3ccccc3o2)cc1 (centres unmarked) [Compound 25]	>4.2-
O=C1c2ccccc2CC1CCN1CCN(c2ccc(Cl)cc2)CC1 (centres unmarked) [Compound 9]	>277

// lookup D2/D4 for O=C(CCCN1CCN(c2ccc(Cl)cc2)CC1)c1ccc(F)cc1 [Compound 1]
14.5
